Where do the numbers come from? From the supplement of paper PMC4862054.

Test system: BT-549
Assay: drug sensitivity score (DSS), CellTiter-Glo (DSS (AUC-based score)); higher = stronger drug effect (viability inhibition or cytotoxicity); extreme values may be limits of the assay
Conditions: incubation time: 72 h
measured parameter: drug sensitivity score
Reply with just the number.

For orientation, consider the following solved cases.
{"compound": "FC(F)c1nc2ccccc2n1-c1nc(N2CCOCC2)nc(N2CCOCC2)n1", "experimental result": 13.1}
{"compound": "CN(c1ccccc1CNc1nc(Nc2ccc3c(c2)CC(=O)N3)ncc1C(F)(F)F)S(C)(=O)=O", "experimental result": 5.64}

Which drug sensitivity score is listed for Cc1cc(C(C)Nc2ccccc2)c2nc(N3CCOCC3)cc(=O)n2c1 (centres undefined) ?
2.27

Another compound to check: "C[C@@]1(C(=O)Nc2ccc(F)nc2)CCCN1c1nc(Nc2cc(C3CC3)n[nH]2)c2cccn2n1"
9.6

Another compound to check: "COc1cccc2c1C(=O)c1c(O)c3c(c(O)c1C2=O)C[C@@](O)(C(C)=O)C[C@@H]3O[C@H]1C[C@H](N)[C@H](O)[C@H](C)O1"
9.34

Another compound to check: "CN1CCN(c2ccc3nc(-c4c(N)c5c(F)cccc5[nH]c4=O)[nH]c3c2)CC1"
0

Another compound to check: "O=C(c1ccc(OCCN2CCCCC2)cc1)c1c(-c2ccc(O)cc2)sc2cc(O)ccc12"
0

Another compound to check: "Nc1nccc(-c2c(-c3ccc(F)cc3)ncn2C2CCCCC2)n1"
0

Another compound to check: "CCS(=O)(=O)c1cccc(-c2cc(C(=O)NC3CCN(C)CC3)c(C)c3[nH]c4ncc(C)cc4c23)c1"
6.76
